Test system: soybean (Glycine max Merr.)
Protocol: Test Example 1: foliar treatment, growth inhibition rate on 14th day
Type: in vivo
Stated Conditions: active ingredient amount 31 g/ha, 14th day after application
Description: Upland field soil was put into a 1/300,000 hectare pot, and seeds of various plants were sown. […] On the 14th day after the application, the state of growth of the respective plants was visually observed, and the herbicidal effect was evaluated by a growth inhibition rate (%) of 0 (equivalent to the non-treated area) to 100 (complete kill).
Measured Property: Growth inhibition rate (%) Soybean
Remember to put the unit after the number in your answer.

// field: Growth inhibition rate (%) Soybean; key: Cc1ccc(Oc2nc3cc(Br)ccc3o2)cc1-c1c(O)cnn(C)c1=O [Compound 2-183] ; value = 30%

// field: Growth inhibition rate (%) Soybean; key: Cc1ccc(Oc2ncc(C(F)(F)F)cc2Cl)cc1-c1c(OC(=O)OC(C)(C)C)c(C)nn(C)c1=O [1-59] ; value = 0%

// field: Growth inhibition rate (%) Soybean; key: CCOC(=O)Oc1c(C)nn(C)c(=O)c1-c1cc(Oc2cnc3cc(Cl)ccc3n2)ccc1C [Compound 3-35] ; value = 25%

// field: Growth inhibition rate (%) Soybean; key: Cc1ccc(Oc2ncc(Cl)cc2C(F)(F)F)cc1-c1c(O)c(C)nn(C)c1=O [Compound 2-92] ; value = 0%

// field: Growth inhibition rate (%) Soybean; key: Cc1ccc(Oc2nc3ccc(Cl)cc3o2)cc1-c1c(O)c(C)nn(C)c1=O [Compound 2-8] ; value = 0%

// field: Growth inhibition rate (%) Soybean; key: Cc1ccc(Oc2cc(C(F)(F)F)c(C(F)(F)F)cn2)cc1-c1c(O)c(C)nn(C)c1=O [Compound 2-93] ; value = 10%

// field: Growth inhibition rate (%) Soybean; key: CCc1ccc(Oc2nc3ccccc3o2)cc1-c1c(O)c(C)nn(C)c1=O [Compound 2-165] ; value = 25%

// field: Growth inhibition rate (%) Soybean; key: CC(=O)Oc1c(C)nn(C)c(=O)c1-c1cc(Oc2ncc(C#N)cc2Cl)ccc1C [Compound 2-60] ; value = 0%

// field: Growth inhibition rate (%) Soybean; key: CC(=O)Oc1cnn(C)c(=O)c1-c1cc(Oc2nc3cc(Cl)ccc3o2)ccc1C [Compound 2-174] ; value = 0%

// field: Growth inhibition rate (%) Soybean; key: CC(=O)Oc1c(C)nn(C)c(=O)c1-c1cc(Nc2ncc(C(F)(F)F)cc2Cl)ccc1C [1-146] ; value = 10%

// field: Growth inhibition rate (%) Soybean; key: Cc1nn(C)c(=O)c(-c2cc(Oc3nc4ccc(Cl)cc4o3)ccc2OC(F)(F)F)c1O [Compound 2-175] ; value = 10%

// field: Growth inhibition rate (%) Soybean; key: COCOc1c(C)nn(C)c(=O)c1-c1cc(Oc2ncc(C(F)(F)F)cc2Cl)ccc1C [1-132] ; value = 20%

// field: Growth inhibition rate (%) Soybean; key: Cc1ccc(Oc2nc3ccc(Br)cc3s2)cc1-c1c(O)c(C)nn(C)c1=O [Compound 2-156] ; value = 0%

// field: Growth inhibition rate (%) Soybean; key: CC(=O)Oc1c(C)nn(C)c(=O)c1-c1cc(Oc2ncc(C(F)(F)F)cc2Br)ccc1C [Compound 2-115] ; value = 0%

// field: Growth inhibition rate (%) Soybean; key: CCn1nc(C)c(OC(C)=O)c(-c2cc(Oc3ncc(C(F)(F)F)cc3Cl)ccc2C)c1=O [1-165] ; value = 0%

// field: Growth inhibition rate (%) Soybean; key: CCc1ccc(Oc2nc3cc(Cl)ccc3o2)cc1-c1c(O)c(C)nn(C)c1=O [Compound 2-162] ; value = 0%

// field: Growth inhibition rate (%) Soybean; key: C=CCn1ncc(O)c(-c2cc(Oc3ncc(C(F)(F)F)cc3Cl)ccc2C)c1=O [1-167] ; value = 10%

// field: Growth inhibition rate (%) Soybean; key: Cc1ccc(Oc2cnc3cc(Cl)ccc3n2)cc1-c1c(OC(=O)C2CC2)c(C)nn(C)c1=O [Compound 3-37] ; value = 30%

// field: Growth inhibition rate (%) Soybean; key: Cc1ccc(Oc2nc3ccc(Cl)cc3o2)cc1-c1c(O)cnn(CC(F)F)c1=O [Compound 2-179] ; value = 0%

// field: Growth inhibition rate (%) Soybean; key: CCn1ncc(O)c(-c2cc(Oc3nc4ccc(Cl)cc4o3)ccc2C)c1=O [Compound 2-167] ; value = 30%

// field: Growth inhibition rate (%) Soybean; key: CCc1ccc(Oc2nc3ccccc3o2)cc1-c1c(O)c(C)nn(C)c1=O [Compound 2-166] ; value = 30%

// field: Growth inhibition rate (%) Soybean; key: Cc1ccc(Oc2cnc3cc(Cl)ccc3n2)cc1-c1c(OC(=O)c2cn(C)nc2C)c(C)nn(C)c1=O [Compound 3-43] ; value = 10%

// field: Growth inhibition rate (%) Soybean; key: CCc1ccc(Oc2ncc(C(F)(F)F)cc2Cl)cc1-c1c(OC(C)=O)cnn(CC)c1=O [1-174] ; value = 0%

// field: Growth inhibition rate (%) Soybean; key: Cc1ccc(Oc2nc3cc(F)ccc3o2)cc1-c1c(O)cnn(C)c1=O [Compound 2-184] ; value = 30%

// field: Growth inhibition rate (%) Soybean; key: Cc1ccc(Oc2nc3ccc(Cl)cc3s2)cc1-c1c(O)c(C)nn(C)c1=O [Compound 2-10] ; value = 30%

// field: Growth inhibition rate (%) Soybean; key: Cc1ccc(Oc2ncc(C(F)(F)F)cc2C(F)(F)F)cc1-c1c(O)c(C)nn(C)c1=O [Compound 2-84] ; value = 0%

// field: Growth inhibition rate (%) Soybean; key: CC(=O)Oc1c(C)nn(C)c(=O)c1-c1cc(Oc2ncc(C(F)(F)F)cc2Cl)ccc1C [1-40] ; value = 10%

// field: Growth inhibition rate (%) Soybean; key: CCc1nn(C)c(=O)c(-c2cc(Oc3ncc(C(F)(F)F)cc3Cl)ccc2C)c1OCOC [1-138] ; value = 30%

Hello, the source for this data is patent US10870638B2, in case you need it.
